- subjectOfTest: Glycine--tRNA ligase (Bombyx mori)
pKi: −log10 of the molar value.
Classification field: True = pKi at or over 5; False = pKi under 5.

Sample answers from the record:
Nc1ncnc2c1ncn2[C@@H]1O[C@H](COP(=O)(O)OP(=O)(O)NP(=O)(O)O)[C@@H](O)[C@H]1O [AMP.P[NH]P] = False
Nc1ncnc2c1ncn2[C@@H]1O[C@H](COP(=O)(O)O)[C@@H](O)[C@H]1O [adenosine 5 -monophosphate] = False
Nc1ncnc2c1ncn2[C@@H]1O[C@H](COP(=O)(O)CP(=O)(O)O)[C@@H](O)[C@H]1O = False

Hi team, for Nc1ncnc2c1ncn2[C@@H]1O[C@H](COP(=O)(O)OP(=O)(O)CP(=O)(O)O)[C@@H](O)[C@H]1O [adenylylmethylenediphosphonate] , is the recorded pKi at or above 5?
True

* * *

- subjectOfTest: Glycine--tRNA ligase (Bombyx mori, UniProt Q04451)
- Sequence (Q04451 53-732): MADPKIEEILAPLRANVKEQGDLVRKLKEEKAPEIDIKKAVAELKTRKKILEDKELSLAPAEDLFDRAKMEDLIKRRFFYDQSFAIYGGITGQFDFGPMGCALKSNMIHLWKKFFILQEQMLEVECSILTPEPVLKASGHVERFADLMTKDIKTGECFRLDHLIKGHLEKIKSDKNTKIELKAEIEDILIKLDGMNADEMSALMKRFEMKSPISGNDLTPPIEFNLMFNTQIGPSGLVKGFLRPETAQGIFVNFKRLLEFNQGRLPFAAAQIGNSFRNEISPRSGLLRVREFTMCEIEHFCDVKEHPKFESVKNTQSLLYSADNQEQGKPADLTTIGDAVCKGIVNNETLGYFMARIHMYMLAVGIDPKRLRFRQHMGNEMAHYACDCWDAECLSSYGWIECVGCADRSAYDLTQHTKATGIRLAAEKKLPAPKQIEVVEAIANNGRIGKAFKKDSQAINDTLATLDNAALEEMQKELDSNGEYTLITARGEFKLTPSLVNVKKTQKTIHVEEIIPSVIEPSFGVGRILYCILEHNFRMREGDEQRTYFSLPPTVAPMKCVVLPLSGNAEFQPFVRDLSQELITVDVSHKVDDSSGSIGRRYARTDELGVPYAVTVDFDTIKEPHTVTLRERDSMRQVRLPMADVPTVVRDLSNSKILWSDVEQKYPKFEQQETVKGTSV
- assayName: In Vitro Enzyme Activity Assay
- measurementContext: pH 7.5; 25 °C
Lab note: cut-off is 100 µM. Strictly less in IC50 is yes (1). Exactly 100 µM or more is no (0).

Look over these answered cases.
Nc1ncnc2c1ncn2[C@@H]1O[C@H](COP(=O)(O)O)[C@@H](O)[C@H]1O [adenosine 5 -monophosphate] = no (0)
Nc1ncnc2c1ncn2[C@@H]1O[C@H](COP(=O)(O)CP(=O)(O)O)[C@@H](O)[C@H]1O = no (0)
NCC(=O)NS(=O)(=O)OC[C@H]1O[C@@H](n2cnc3c(N)ncnc32)[C@H](O)[C@@H]1O [5-O-[N-(L-glycyl)sulfamoyl]adenosine] = yes (1)

In the following, a different compound is considered.
Is it true that IC50 reported for Nc1ncnc2c1ncn2[C@@H]1O[C@H](COP(=O)(O)OP(=O)(O)CP(=O)(O)O)[C@@H](O)[C@H]1O [adenylylmethylenediphosphonate] is less than 100 µM?
yes (1)
